- Measurement target: HLA-A*11:01
- Protocol text: IEDB peptide-MHC binding, purified MHC/direct/fluorescence; filed as Kd, often an IC50 or EC50 that approximates it; bounds were set here for any values at or beyond the usual limits of such assays
- Measurement parameters: source organism: Giardia lamblia ATCC 50803
pKd: −log10 of the molar value.
Measurement kind: pKd

KSNRIPFLY; 8.15
IFKNLTKPL; ≤ 4.70
FMGRLGPEY; ≤ 4.70

----------
- Measurement target: HLA-A*02:16
- Protocol text: IEDB peptide-MHC binding, purified MHC/direct/fluorescence; filed as Kd, often an IC50 or EC50 that approximates it; bounds were set here for any values at or beyond the usual limits of such assays
- Measurement parameters: source organism: Choclo virus
pKd: −log10 of the molar value.
Measurement kind: pKd

GSFRKICGF; ≤ 4.70
